Just for reference, the supplement of paper PMC4466140 is where these values come from.

measuredTarget: CaHse1
assayExplanation: SPOT peptide array binding signal intensity (averaged, normalized) (arbitrary units (background-subtracted, floor 0; scale differs between SH3 domains)); higher = stronger binding of the SH3 domain to the peptide
Record condition met whenever SPOT peptide array binding signal intensity is at 30 or higher; record condition not met when lower.

| binder | assignedClass |
| --- | --- |
| PSRRAPLQLPQLVNK | condition not met |
| GPPPPLPPPLFPSSS | condition not met |
| KRRTSLFPWLHKPGI | condition met |
| TPRLSLPRLPNKHHW | condition met |
| GKKVRPLLVLLLSRA | condition met |
